# Ca^2+ (conc. of ions chelated) values compiled below
# protocol: Comparison of chelating effects, divalent cation electrode and ion analyzer
# Format: binding
# Set-up: unit not given here

* O=C(O)[C@H](O)[C@@H](O)[C@H](O)[C@H](O)CO | 1.20
* O=C(O)CC(O)(CC(=O)O)C(=O)O | 3.50
* O=C(O)CN(CCN(CC(=O)O)CC(=O)O)CC(=O)O | 10.70

From here, focus on the item given below.
The recorded Ca^2+ (conc. of ions chelated) for CC(O)C(=O)O (stereo not shown) is 1.07
